- ASSAY PROTOCOL: protein stability index of a GFP-peptide fusion (yeast GPS) (PSI 1-4); higher = more stable; sorted into four equal gates, so the index is relative within each strain
- CONDITION NOTES: ubr1∆
Could you label it fulfilled if measured protein stability index is 3 or higher, and not fulfilled otherwise?

                sequence_chain   answer_label
 0   AYSPKQDEQKHNENENS [RPO21]  not fulfilled
 1    HNMLNLLIHRKGLTYLH [PRP8]  not fulfilled
 2    AGMTTIVRDLDRPGSKF [RPL3]      fulfilled
 3    SLKGLQSKLKDVVEYLD [RPN8]  not fulfilled
 4    FIERNFTPQEIEYCSAQ [FAS2]  not fulfilled
 5    YINDVHLLYPPHIIAVA [SSN8]  not fulfilled
 6    IEHNLRVISEYYSRITL [RPN5]  not fulfilled
 7    LHPQLHEVQYQESSSTL [SIN4]  not fulfilled
 8   AYLLLNAAGNTPDATKI [RPP2A]  not fulfilled
 9    TATAATNGNNAGGGSNK [MED6]      fulfilled
10  GRRISENGQRDLDRIAA [RPS19A]      fulfilled
11   RGKKGLKKKVVDPFTRK [RPS1B]      fulfilled
12    FVKNIRMLSFEDISKAT [RPN9]  not fulfilled

----------
- ASSAY PROTOCOL: protein stability index of a GFP-peptide fusion (yeast GPS) (PSI 1-4); higher = more stable; sorted into four equal gates, so the index is relative within each strain
- CONDITION NOTES: ubr1∆
Parameter protein stability index: see the listing below.
RECORDED ENDPOINT: protein stability index

>>> print(df.to_string())
                        sequence_chain  measured
 0            VQGAAPWDTSLEVGRRF [MCD1]      3.43
 1           VRIDLGTIDKLQLELTI [RPO31]      2.91
 2            LHPYVPSSKPQEQVYPD [SRB8]      3.25
 3            YRLDIIESALKSKLDQD [RPN2]      1.94
 4            HILAVKKMMNTLVHTRV [SSN2]      1.34
 5           PDPRSTVIPEDEEIIQL [RPO21]      2.66
 6            GLAPDARVLSNYLRQQC [PRE5]      1.47
 7          DRRKARKAYFTAPSSQR [RPL26A]      2.59
 8            DKKKGQNVTSETHSKKR [ITC1]      3.04
 9           QSQPQEKFSEKMLKIWT [ECM29]      3.03
10            AITHMIDALGTEFSKND [SCL1]      2.61
11            EPHAVSLAWSADGQTLF [ASC1]      2.79
12            SKQTPQPKAPRAPKVIH [ISW2]      3.14
13  EIILKLCRNPLTSGLLY [YJL039C/NUP192]      1.17

----------
- ASSAY PROTOCOL: protein stability index of a GFP-peptide fusion (yeast GPS) (PSI 1-4); higher = more stable; sorted into four equal gates, so the index is relative within each strain
- CONDITION NOTES: doa10∆
RECORDED ENDPOINT: protein stability index

In [3]: df
Out[3]:
                      sequence_chain        recorded_endpoint  measured
 0          FNGAQLKAVTVEAGMIA [RPT5]  protein stability index      2.73
 1          ISAPSMEDEILSLGMDF [BRN1]  protein stability index      3.15
 2          KALQSIGQLIGEVMKEL [RPT4]  protein stability index      3.35
 3         KMLSCAGADRLQQGMRG [RPL10]  protein stability index      3.43
 4         EFLFESLKNDLPQFRSS [ECM29]  protein stability index      2.93
 5          HTEDTVNESRNSDDIID [SRB5]  protein stability index      2.31
 6          ENEVSDIDVTIVSKEYE [ESC2]  protein stability index      3.08
 7         ARYVIATSTKVSVEGVN [RPL6A]  protein stability index      1.62
 8          TFGKPEEEDSILSLEQS [YCS4]  protein stability index      3.19
 9         ETQFKLSRPYKALKTNI [CDC53]  protein stability index      2.19
10          ENSAVAAKEGLALSSNI [COR1]  protein stability index      1.84
11         IINFGEIEQNTELLDEF [RPN10]  protein stability index      3.25
12  PPSVTLQDWQREDEFGS [YDL088C/ASM4]  protein stability index       3.1
13         LYNKIWTEASSSGAGTV [ECM29]  protein stability index      2.12

Data credit: the supplement of paper PMC9732359
